assay: solvent given as SMILES; details: in ClC(Cl)Cl
result type: absorption maximum
Your reply should be a number followed by the unit it is expressed in.

Asked: Entry under review: O=[N+]([O-])c1cc(C=C(C#Cc2ccccc2)C#Cc2ccccc2)ccc1C=C(C#Cc1ccccc1)C#Cc1ccccc1 . Reported absorption maximum?
Given back: 413 nm

Asked: Recorded absorption maximum of Clc1ccc(-c2nc(-c3ccccc3)sc2N(c2ccccc2)c2ccccc2)cc1 , please.
Given back: 366 nm

Asked: Fill blank: measured absorption maximum of the compound O=C1C=C(Nc2ccccc2)CCC1 is ____.
Given back: 303 nm

Asked: For the compound shown here, CC(=O)O[B-]1(OC(C)=O)OC(/C=C/c2cccc3ccccc23)=CC(/C=C/c2cccc3ccccc23)=[O+]1 , give the reported absorption maximum.
Given back: 474 nm

Asked: I am curious: what absorption maximum value has been reported for CC1=[N+]2C(=c3c4c5ccccc5cc5cccc(c6cc(C)n(c36)[B-]2(F)F)c54)C=C1 ?
Given back: 584 nm

Asked: Would you mind telling me what absorption maximum value was observed for CC1(C)c2ccccc2N(c2cccc(S(=O)(=O)c3cccc(N4c5ccccc5C(C)(C)c5ccccc54)c3)c2)c2ccccc21 ?
Given back: 287 nm

Asked: Look up absorption maximum for this compound: CCCCCCCCn1c(=O)c2cc3c(C#Cc4ccc(N(c5ccccc5)c5ccccc5)cc4)c4cc5c(=O)n(CCCCCCCC)c(=O)c5cc4c(C#Cc4ccc(N(c5ccccc5)c5ccccc5)cc4)c3cc2c1=O
Given back: 582 nm

Asked: Find the recorded absorption maximum belonging to COc1ccc(-c2cc(-c3ccc(N(C)C)cc3)nc(-c3ccccc3)n2)cc1 and report it.
Given back: 365 nm
